Biological target: corticotropin releasing factor 1 receptor
Assay: cell-based or functional assay
Ends that are not written are not given here.
Please note: TRUE applies when CRF1R Emax % is 90% or greater, and FALSE applies otherwise.

Illustrative cases are given below, each with its answer.
binder: IVLSLDVPIGLLQILLEQARARAAREQATTNARILARV (ends and bridges not checked) [human urocortin II fragment]
class.name: FALSE

binder: SQEPPISLDLTFHLLREVLEMTKADQLAQQAHSNRKLLDIA (ends and bridges not checked) [ovine corticotropin releasing factor fragment]
class.name: TRUE

binder: TKFTLSLDVPTNIMNLLFNIAKAKNLRAQAAANAHLMAQI (ends and bridges not checked) [human urocortin III fragment]
class.name: FALSE

binder: SEEPPISLDLTFHLLREVLEMARAEQLAQQAHSNRKLMEII (ends and bridges not checked) [human corticotropin releasing factor fragment]
class.name: FALSE

Input line: Textbook exercise: given the entry DNPSLSIDLTFHLLRTLLELARTQSQRERAEQNRIIFDSV (ends and bridges not checked) [human urocortin I fragment] , state whether its CRF1R Emax % is greater than or equal to 90%.
Output line: TRUE
